A collection of binders and their measured hGLP1R GTPgS Rel EC50
target: human GLP-1 receptor (human, UniProt P43220 24-463); experiment: cell-based or functional assay
Numbered stars: 1 amine (or outer) side, 2 acyl side, 3 side chain; on linkers, the order of the positions; unused ones are H or OH. Square brackets hold non-standard residues; d marks the D form. Side chains are listed from the residue outwards. Ends that are not written are not given here. * marks the point of attachment. C20 diacid = O=C(O)CCCCCCCCCCCCCCCCCCC(=O)*; γGlu = O=C(O)[C@H](CCC(=O)[*:2])N[*:1]; AEEA = NCCOCCOCC(=O)O; Aib = CC(C)(N)C(=O)O
Express the result in nM but write the number alone.

>>> quantitative_readout("XXEGTXTSDYSILLDKKAQXAFIEYLIEGGPSSGAPPPS (D-Tyr1, Aib2, αMeF6, K17 conjugated to (2-[2-(2-Amino-ethoxy)-ethoxy]-acetyl)2-(γ-Glu)-CO-(CH2)18-CO2H, Aib20, C-terminal amide (NH2)) [Example 329]")
0.343

Return reported hGLP1R GTPgS Rel EC50; argument: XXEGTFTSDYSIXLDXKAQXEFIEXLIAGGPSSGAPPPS (D-Tyr1, Aib2, αMeL13, Orn16, K17 conjugated to (2-[2-(2-Amino-ethoxy)-ethoxy]-acetyl)2-(γ-Glu)-CO-(CH2)16-CO2H, Aib20, αMeY25, C-terminal amide (NH2)) [Example 375]
0.419

Can you handle XXEGTFTSDYSIXLDEKAQXEFIEYLIAGGPSSGAPPPS (not fully specified; D-Tyr1, Aib2, αMeL13, K17 conjugated to (2-[2-(2-Amino-ethoxy)-ethoxy]-acetyl)2-(γ-Glu)-CO-(CH2)18-CO2H, Aib20, C-terminal amide (NH2)) [Example 342] next?
0.414

Can you handle XXEGTFTSDYSIXLDXKAQXDFIEYLIAGGPSSGAPPPS (D-Tyr1, Aib2, αMeL13, Orn16, K17 conjugated to (2-[2-(2-Amino-ethoxy)-ethoxy]-acetyl)2-(γ-Glu)-CO-(CH2)18-CO2H, Aib20, C-terminal amide (NH2)) [Example 369] next?
0.381

Can you handle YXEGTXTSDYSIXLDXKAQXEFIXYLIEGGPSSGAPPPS (Aib2, αMeF(2F)6, αMeL13, Orn16, K17 conjugated to (2-[2-(2-Amino-ethoxy)-ethoxy]-acetyl)2-(γ-Glu)-CO-(CH2)18-CO2H, Aib20, D-Glu24, C-terminal amide (NH2)) [Example 3] next?
0.421

Can you handle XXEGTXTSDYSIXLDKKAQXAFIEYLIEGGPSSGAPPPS (not fully specified; D-Tyr1, Aib2, αMeF6, αMeL13, K17 conjugated to (2-[2-(2-Amino-ethoxy)-ethoxy]-acetyl)2-(γ-Glu)-CO-(CH2)18-CO2H, Aib20, C-terminal amide (NH2)) [Example 335] next?
0.285

Can you handle YXEGTFTSDYSIXLDKKAQXEFIEYLIEGGPSSG (Aib2, αMeL13, K17 conjugated to (2-[2-(2-Amino-ethoxy)-ethoxy]-acetyl)2-(γ-Glu)-CO-(CH2)16-CO2H, Aib20, C-terminal amide (NH2)) [Example 304] next?
0.561

Can you handle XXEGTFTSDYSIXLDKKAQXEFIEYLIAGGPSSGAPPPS (D-Tyr1, Aib2, αMeL13, K17 conjugated to (2-[2-(2-Amino-ethoxy)-ethoxy]-acetyl)-(γ-Glu)-CO-(CH2)18-CO2H, Aib20, C-terminal amide (NH2)) [Example 378] next?
0.359

Can you handle XXEGTFTSDYSIXLDXKAQXEFIXYLIEGGPSSGAPPPS (D-Tyr1, Aib2, αMeL13, Orn16, K17 conjugated to (2-[2-(2-Amino-ethoxy)-ethoxy]-acetyl)2-(γ-Glu)-CO-(CH2)18-CO2H, Aib20, D-Glu24, C-terminal amide (NH2)) [Example 355] next?
1.76

Can you handle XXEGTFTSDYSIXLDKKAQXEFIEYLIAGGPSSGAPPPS (D-Tyr1, Aib2, αMeL13, K17 conjugated to (2-[2-(2-Amino-ethoxy)-ethoxy]-acetyl)2-(γ-Glu)-CO-(CH2)18-CO2H, Aib20, C-terminal amide (NH2)) [Example 290] next?
0.466

Can you handle F[Aib]EGTFTSDYSILLDKK([AEEA-AEEA-γGlu-C20 diacid])AQ[Aib]AFIEYLIEGGPSSGAPPPS-NH2 [Example 326] next?
0.663

Can you handle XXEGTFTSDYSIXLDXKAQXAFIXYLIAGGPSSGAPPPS (D-Tyr1, Aib2, αMeL13, Orn16, K17 conjugated to (2-[2-(2-Amino-ethoxy)-ethoxy]-acetyl)2-(γ-Glu)-CO-(CH2)18-CO2H, Aib20, D-Glu24, C-terminal amide (NH2)) [Example 291] next?
0.466

Can you handle YXEGTFTSDYSIXLDKKAQXEFIEYLIEGGPSSGAPPPS (Aib2, αMeL13, K17 conjugated to (2-[2-(2-Amino-ethoxy)-ethoxy]-acetyl)2-(γ-Glu)-CO-(CH2)18-CO2H, Aib20, C-terminal amide (NH2)) [Example 333] next?
0.442
